Data provenance: patent US20220056018A1

For each record, write down the corresponding pIC50.
Tested on: ASPC1
Assay: Cancer cell growth inhibition
Format: cell-based
Details: Homo sapiens; ASPC1 (pancreas), 72 hr treatment
Description: The ability of select compounds to inhibit cell growth in various cancer cell lines are evaluated. […] The cell lines shown in Table 2 have reduced growth by at least 50% at 10 uM or lower over 72 hr treatment in growth media. […] Six 10-fold compound dilutions are prepared in DMSO (e.g. 10 mM, 1 mM, 100 uM, 10 uM, 1 uM, and 0.1 uM). […] Growth inhibition is measured using Sulforhodamine B in a protein staining assay. […]
pIC50: −log10 of the molar value.

Hi! Can you tell me pIC50 for each of these molecules?
1. CS(=O)(=O)Nc1ccc(-c2cc(-c3ccnc4c3OCCO4)cs2)c(Cl)c1 [Compound I-9017]
2. CC(C)(O)Cc1cc(-c2csc(-c3ccc(NS(C)(=O)=O)cc3Cl)c2)ccn1 [Compound I-9004]
3. CC(C)(CO)c1cc(-c2csc(-c3ccc(NS(C)(=O)=O)cc3Cl)c2)ccn1 [Compound I-8909]

1. > 5.00
2. > 5.00
3. > 5.00

---

Tested on: NCIH292
Assay: Cancer cell growth inhibition
Type: cell-based
Conditions: Homo sapiens, NCI-H292; NCIH292 (lung), 72 hr treatment
Record form. Attribute: IC50. Fill in for each entry.

Recorded results for 2 compounds are shown here.
CC(C)(CO)c1cc(-c2csc(-c3ccc(NS(C)(=O)=O)cc3Cl)c2)ccn1 [Compound I-8909]	< 10 µM
CC(C)(O)Cc1cc(-c2csc(-c3ccc(NS(C)(=O)=O)cc3Cl)c2)ccn1 [Compound I-9004]	< 10 µM

Next compound, IC50 to be filled in.
I'd like to know its IC50. The compound in question is CS(=O)(=O)Nc1ccc(-c2cc(-c3ccnc4c3OCCO4)cs2)c(Cl)c1 [Compound I-9017]
< 10 µM

---

Record form. Attribute: IC50. Fill in for each entry.
Test system: U87MG
Test: Cancer cell growth inhibition
Format: cell-based
Conditions: Homo sapiens, U-87 MG; U87MG (brain), 72 hr treatment

CS(=O)(=O)Nc1ccc(-c2cc(-c3ccnc4c3OCCO4)cs2)c(Cl)c1	< 10 µM
CC(C)(CO)c1cc(-c2csc(-c3ccc(NS(C)(=O)=O)cc3Cl)c2)ccn1	> 10 µM

Look up IC50 for this compound: "CC(C)(O)Cc1cc(-c2csc(-c3ccc(NS(C)(=O)=O)cc3Cl)c2)ccn1"
> 10 µM

---

Test system: NCIH82
Experiment: Cancer cell growth inhibition
Type: cell-based
Details: Homo sapiens, NCI-H82; NCIH82 (lung), 72 hr treatment
Assign IC50 to each entry below.

I need IC50 for every entry listed below, if you could help.
1. CC(C)(CO)c1cc(-c2csc(-c3ccc(NS(C)(=O)=O)cc3Cl)c2)ccn1
2. CC(C)(O)Cc1cc(-c2csc(-c3ccc(NS(C)(=O)=O)cc3Cl)c2)ccn1
3. CS(=O)(=O)Nc1ccc(-c2cc(-c3ccnc4c3OCCO4)cs2)c(Cl)c1

["< 10 µM", "< 10 µM", "< 10 µM"]

---

Would you kindly list pIC50 for each of these molecules?
Tested on: WSU-NHL
Assay: Cancer cell growth inhibition
Type: cell-based
Settings: Homo sapiens; WSU-NHL (hematological), 72 hr treatment
pIC50: −log10 of the molar value.

CS(=O)(=O)Nc1ccc(-c2cc(-c3ccnc4c3OCCO4)cs2)c(Cl)c1 [Compound I-9017]	> 5.00

List reported pIC50 for each of these molecules:
1. CC(C)(CO)c1cc(-c2csc(-c3ccc(NS(C)(=O)=O)cc3Cl)c2)ccn1 [Compound I-8909]
2. CC(C)(O)Cc1cc(-c2csc(-c3ccc(NS(C)(=O)=O)cc3Cl)c2)ccn1 [Compound I-9004]

["> 5.00", "> 5.00"]
